assayedSystem: ER-alpha (WT) (Homo sapiens (Human))
Sequence (P03372 whole entry): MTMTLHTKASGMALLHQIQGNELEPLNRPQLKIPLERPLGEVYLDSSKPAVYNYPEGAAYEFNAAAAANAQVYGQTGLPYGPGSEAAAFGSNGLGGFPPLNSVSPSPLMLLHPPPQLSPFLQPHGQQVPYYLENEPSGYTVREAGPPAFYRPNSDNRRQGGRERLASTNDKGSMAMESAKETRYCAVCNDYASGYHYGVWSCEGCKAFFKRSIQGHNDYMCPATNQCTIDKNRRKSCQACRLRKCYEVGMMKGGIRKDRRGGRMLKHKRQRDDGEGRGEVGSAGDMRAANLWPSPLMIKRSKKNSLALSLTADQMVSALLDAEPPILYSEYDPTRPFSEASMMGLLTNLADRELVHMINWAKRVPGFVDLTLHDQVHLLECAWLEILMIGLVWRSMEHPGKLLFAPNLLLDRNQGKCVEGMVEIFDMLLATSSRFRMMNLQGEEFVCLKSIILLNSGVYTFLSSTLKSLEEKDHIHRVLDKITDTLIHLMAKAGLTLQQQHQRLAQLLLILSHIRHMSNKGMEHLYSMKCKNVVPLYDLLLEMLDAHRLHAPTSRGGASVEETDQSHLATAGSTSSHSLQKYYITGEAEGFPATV
assayText: Breast Cancer Cell ERa High Content Fluorescence Imaging Degradation Assay (ER-alpha MCF7 HCS)
Format: cell-based
conditionContext: MCF7 breast cancer cells; plateau of the maximal effect (ERa degradation); DMSO and 5 nM Fulvestrant define 0% and 100% changes in ESR1
metric: ER-alpha (WT) MCF7 HCS (S inf) (%)

- compound: "Oc1ccc2c(c1)CC[C@H](c1ccccc1)[C@@H]2c1ccc(OC2CN(CCCF)C2)cc1"
  metric: "ER-alpha (WT) MCF7 HCS (S inf)"
  observedMeasurement: "−99.3"

P: Oc1ccc2c(c1)CCC1(CCCC1)[C@@H]2c1ccc(OCCN2CC(CF)C2)cc1
Q: Oc1ccc2c(c1)CC[C@H](c1ccccc1)[C@@H]2c1ccc(OCCN2CCC(CF)C2)cc1 (stereo partly drawn)
# input In terms of reported ER-alpha (WT) MCF7 HCS (S inf), does P or Q have the smaller number? Answer by stating the label of the chosen item.
# output P
(P: −99.2%, Q: −55%)
